- System: 786-0 renal
- assaySummary: NCI-60 one-dose screen, 48 h
- conditionLabel: 10 µM unless noted
About 83,000 compounds went through this panel and 20% of them were active in at least one assay; those are over-represented in the sample as a whole. Activity calls are given as the source filed them. How the source made its calls: active means growth percent below 10; inactive means the rest.
Choose one outcome from this list and give only that: active, inactive

Solved entries:
[[record]]
molsmiles = "COc1cc2cc(NCc3ccc(Cl)cc3)nc(C)c2cc1OC"
classlabel = "inactive"

[[record]]
molsmiles = "COc1cccc(NC(=O)Nc2ccc(Nc3ncnc4sc5c(c34)CCN(C(=O)CCl)C5)cc2)c1"
classlabel = "inactive"

[[record]]
molsmiles = "CO[C@H]1C[C@@H]2CC[C@@H](C)[C@@](O)(O2)C(=O)C(=O)N2CCCC[C@H]2C(=O)O[C@H]([C@H](C)C[C@@H]2CC[C@@H](O)[C@H](OC)C2)CC(=O)[C@H](C)/C=C(\\C)[C@@H](O)[C@@H](OC)C(=O)[C@H](C)C[C@H](C)\\C=C/C=C/C=C/1C"
classlabel = "inactive"

[[record]]
molsmiles = "OCCNC(=S)Nc1ccc(-c2nc(N3C[C@H]4CC[C@@H](C3)O4)c3cccn3n2)cc1"
classlabel = "active"


Ask | Recorded call for COc1ccc(-c2nc(N)ncc2Oc2ccccc2OC)c(O)c1 ?
Reply | inactive
